Target: GPR119 (Homo sapiens, UniProt Q8TDV5)
Construct: host or cells: CHO-K1 (GPR119 CRE-bla, doxycycline-induced)
Test: cAMP Accumulation Assay (GPR119 CRE-bla CHO-K1 cells, LiveBLAzer-FRET B/G)
Format: cell-based
Details: maximum activity, response ratio versus non-treated control group
QUANTITY MEASURED: Emax (Fold)

molecule="CCc1cnc(N2CCN(c3ncc(-c4ccc(-n5cnn(CN6CCCC6)c5=O)c(F)c4)cc3C#N)[C@@H](C)C2)nc1 [Example 28]" unit_abbreviation=Fold readout_value=3.9
molecule="CCc1cnc(N2CCN(c3ncc(-c4ccc(-n5cnn(CCOC)c5=O)cc4)cc3C#N)CC2)nc1 [Example 40]" unit_abbreviation=Fold readout_value=3.1
molecule="CCOC(=O)n1ncn(-c2ccc(-c3cnc(N4CCN(c5ncc(CC)cn5)C[C@@H]4C)c(C#N)c3)cc2F)c1=O [Example 24]" unit_abbreviation=Fold readout_value=3.6
molecule="CCc1cnc(N2CCN(c3ncc(-c4ccc(-n5cnn(CCN(C(=O)OC(C)(C)C)C(C)C)c5=O)c(F)c4)cc3C#N)[C@@H](C)C2)nc1 [Example 19]" unit_abbreviation=Fold readout_value=3.5
molecule="COCCn1ncn(-c2ccc(-c3cnc(N4CCN(C(=O)OC(C)(C)C)C[C@@H]4C)nc3)cc2F)c1=O [Example 4]" unit_abbreviation=Fold readout_value=3.5
molecule="CCc1cnc(N2CCN(c3ncc(-c4ccc(-n5cnn([C@H]6CCNC6)c5=O)cc4)cc3C#N)CC2)nc1 [Example 42]" unit_abbreviation=Fold readout_value=3.0
molecule="CCc1cnc(N2CCN(c3ncc(-c4ccc(-n5cnn(CCOC)c5=O)c(F)c4)cc3C#N)CC2)nc1 [Example 31]" unit_abbreviation=Fold readout_value=3.4
molecule="CCCn1ncn(-c2ccc(-c3cnc(N4CCC(c5nc(C(C)C)no5)CC4)c(C#N)c3)cc2F)c1=O [Example 62]" unit_abbreviation=Fold readout_value=3.5
molecule="CCc1cnc(N2CCN(c3ncc(-c4ccc(-n5cnn(CCNC(C)C)c5=O)c(F)c4)cc3C#N)[C@@H](C)C2)nc1.Cl [Example 20]" unit_abbreviation=Fold readout_value=3.1
molecule="COCn1ncn(-c2ccc(-c3cnc(N4CCN(c5noc(C(C)C)n5)CC4)c(C#N)c3)cc2)c1=O [Example 48]" unit_abbreviation=Fold readout_value=3.0
molecule="CCc1cnc(N2CCN(c3ncc(-c4ccc(-n5cnn([C@@H]6CCOC6)c5=O)c(F)c4)cc3C#N)CC2)nc1 [Example 33]" unit_abbreviation=Fold readout_value=4.0
molecule="CCc1cnc(N2CCN(c3ncc(-c4ccc(-n5cnn(CCNC(C)=O)c5=O)c(F)c4)cc3C#N)[C@@H](C)C2)nc1 [Example 26]" unit_abbreviation=Fold readout_value=3.4
molecule="CCc1cnc(N2CCN(c3ncc(-c4ccc(-n5cnn(CC(C)C)c5=O)c(F)c4)cc3C#N)[C@@H](C)C2)nc1 [Example 12]" unit_abbreviation=Fold readout_value=2.6
molecule="CCc1cnc(N2CCN(c3ncc(-c4ccc(-n5cnn(CCN(CC)CC)c5=O)c(F)c4)cc3C#N)[C@@H](C)C2)nc1 [Example 10]" unit_abbreviation=Fold readout_value=2.6

---

Biological target: GPR119 (Homo sapiens, UniProt Q8TDV5)
Construct: host or cells: CHO-K1 (GPR119 CRE-bla, doxycycline-induced)
Sequence (Q8TDV5 1-335): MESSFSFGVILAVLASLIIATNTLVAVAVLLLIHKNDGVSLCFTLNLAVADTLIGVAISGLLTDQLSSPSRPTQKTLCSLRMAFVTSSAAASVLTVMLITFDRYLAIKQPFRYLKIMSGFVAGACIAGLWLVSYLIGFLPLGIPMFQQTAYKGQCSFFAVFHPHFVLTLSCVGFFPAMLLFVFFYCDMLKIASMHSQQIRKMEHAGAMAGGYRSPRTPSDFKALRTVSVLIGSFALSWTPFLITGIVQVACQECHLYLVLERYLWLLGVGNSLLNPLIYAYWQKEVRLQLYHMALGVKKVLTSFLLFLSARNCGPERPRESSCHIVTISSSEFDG
Test: cAMP Accumulation Assay (GPR119 CRE-bla CHO-K1 cells, LiveBLAzer-FRET B/G)
Type: cell-based
Settings: maximum activity, response ratio versus non-treated control group
QUANTITY MEASURED: Emax (Fold)

item_smiles=CCc1cnc(N2CCN(c3ncc(-c4ccc(-n5cn[nH]c5=O)c(F)c4)cc3C#N)[C@@H](C)C2)nc1 readout_value=2.9
item_smiles=CC(C)c1nc(C2CCN(c3ncc(-c4ccc(-n5cnn([C@H]6CCOC6)c5=O)cc4)cc3C#N)CC2)no1 readout_value=3.8
item_smiles=CCc1cnc(N2CCN(c3ncc(-c4ccc(-n5cnn(C(C)C)c5=O)c(F)c4)cc3C#N)CC2)nc1 readout_value=3.8
item_smiles=CCc1cnc(N2CCN(c3ncc(-c4ccc(-n5cnn(C[C@H](O)CO)c5=O)c(F)c4)cc3C#N)CC2)nc1 readout_value=4.3

---

Target: GPR119 (Homo sapiens, UniProt Q8TDV5)
Construct: host or cells: CHO-K1 (GPR119 CRE-bla, doxycycline-induced)
Assay: cAMP Accumulation Assay (GPR119 CRE-bla CHO-K1 cells, LiveBLAzer-FRET B/G)
Assay type: cell-based
Conditions: (Emax of the test compound/Emax of MBX-2982)x100, 5 hours incubation
Listed next: entries and their corresponding Emax (% RR).
QUANTITY MEASURED: Emax (% RR)

item_smiles=CCc1cnc(N2CCN(c3ncc(-c4ccc(-n5cnn(CCN6CCOCC6)c5=O)c(F)c4)cc3C#N)[C@@H](C)C2)nc1 experimental_system="GPR119 (Homo sapiens, UniProt Q8TDV5)" unit_abbreviation="% RR" readout_value=124.5
item_smiles=CCc1cnc(N2CCN(c3ncc(-c4ccc(-n5cnn(CC(C)(C)C#N)c5=O)c(F)c4)cc3C#N)[C@@H](C)C2)nc1 experimental_system="GPR119 (Homo sapiens, UniProt Q8TDV5)" unit_abbreviation="% RR" readout_value=116.0
item_smiles=CC(C)n1ncn(-c2ccc(-c3cnc(N4CCC(c5nnc(C(F)(F)F)o5)CC4)c(C#N)c3)cc2)c1=O experimental_system="GPR119 (Homo sapiens, UniProt Q8TDV5)" unit_abbreviation="% RR" readout_value=101.3
item_smiles=CCc1cnc(N2CCN(c3ncc(-c4ccc(-n5cnn(CCNC(C)C)c5=O)c(F)c4)cc3C#N)[C@@H](C)C2)nc1.Cl experimental_system="GPR119 (Homo sapiens, UniProt Q8TDV5)" unit_abbreviation="% RR" readout_value=109.6
item_smiles=CC(C)c1nc(C2CCN(c3ncc(-c4ccc(-n5cnn(CN6CCCC6)c5=O)c(F)c4)cc3C#N)CC2)no1 experimental_system="GPR119 (Homo sapiens, UniProt Q8TDV5)" unit_abbreviation="% RR" readout_value=130.8
item_smiles=CC(C)c1nc(N2CCN(c3ncc(-c4ccc(-n5cnn(C(C)C)c5=O)c(F)c4)cc3C#N)CC2)no1 experimental_system="GPR119 (Homo sapiens, UniProt Q8TDV5)" unit_abbreviation="% RR" readout_value=133.3
item_smiles=CCCn1ncn(-c2ccc(-c3cnc(N4CCN(C(=O)OC(C)(C)C)C[C@@H]4C)c(C#N)c3)cc2F)c1=O experimental_system="GPR119 (Homo sapiens, UniProt Q8TDV5)" unit_abbreviation="% RR" readout_value=109.1
item_smiles=COCCn1ncn(-c2ccc(-c3cnc(N4CCC(c5nnc(C(F)(F)F)o5)CC4)c(C#N)c3)cc2F)c1=O experimental_system="GPR119 (Homo sapiens, UniProt Q8TDV5)" unit_abbreviation="% RR" readout_value=101.8
item_smiles=CCc1cnc(N2CCN(c3ncc(-c4ccc(-n5cnn(CCNC(C)=O)c5=O)c(F)c4)cc3C#N)[C@@H](C)C2)nc1 experimental_system="GPR119 (Homo sapiens, UniProt Q8TDV5)" unit_abbreviation="% RR" readout_value=112.5
item_smiles=CCc1cnc(N2CCN(c3ncc(-c4ccc(-n5cnn([C@@H]6CCOC6)c5=O)cc4)cc3C#N)CC2)nc1 experimental_system="GPR119 (Homo sapiens, UniProt Q8TDV5)" unit_abbreviation="% RR" readout_value=113.4
item_smiles=CC(C)c1noc(C2CCN(c3ncc(-c4ccc(-n5cnn(CN6CCCC6)c5=O)c(F)c4)cc3C#N)CC2)n1 experimental_system="GPR119 (Homo sapiens, UniProt Q8TDV5)" unit_abbreviation="% RR" readout_value=130.8
item_smiles=CCc1cnc(N2CCN(c3ncc(-c4ccc(-n5cnn([C@@H]6CCNC6)c5=O)c(F)c4)cc3C#N)CC2)nc1 experimental_system="GPR119 (Homo sapiens, UniProt Q8TDV5)" unit_abbreviation="% RR" readout_value=113.8
item_smiles=CCn1ncn(-c2ccc(-c3cnc(N4CCC(c5nc(C(C)C)no5)CC4)c(C#N)c3)cc2)c1=O experimental_system="GPR119 (Homo sapiens, UniProt Q8TDV5)" unit_abbreviation="% RR" readout_value=123.8
item_smiles=C=C(C)OC(=O)N(C)C1CCN(c2ncc(-c3ccc(-n4cnn(C(C)C)c4=O)c(F)c3)cc2C#N)CC1 experimental_system="GPR119 (Homo sapiens, UniProt Q8TDV5)" unit_abbreviation="% RR" readout_value=100.8
